substrate: FN-B, recombinant human fibronectin extra domain B (EDB) as a single domain; assay: ELISA; settings: chain shown with the change; pre-coated human FN-B; detection with HRP-conjugated anti-S-tag antibody; parent: est. 100; read off a plot
Sequence (chain, as listed by the source): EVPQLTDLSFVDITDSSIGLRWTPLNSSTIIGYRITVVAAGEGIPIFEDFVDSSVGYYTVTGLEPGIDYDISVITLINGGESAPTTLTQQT
property-name: percent of parent (%)

1: PMCTQRANRIRLCRRDSDCTGACICRGNGYCG [Trx-MC-FN-010, Thioredoxin-A fusion of cystine-knot miniprotein MC-FN-010 K7A]
2: PMCTQRKNRIRLCARDSDCTGACICRGNGYCG [Trx-MC-FN-010, Thioredoxin-A fusion of cystine-knot miniprotein MC-FN-010 R14A]
3: AMCTQRKNRIRLCRRDSDCTGACICRGNGYCG [Trx-MC-FN-010, Thioredoxin-A fusion of cystine-knot miniprotein MC-FN-010 P1A]
**Query** Rank the binders listed above in increasing order of percent of parent. Form entry: labels listed in requested order.
**Result** 2, 3, 1
(2: 71%, 3: 130%, 1: 320%)
